- System: 786-0 renal
- assay_summary: NCI tumour cell line growth inhibition, 48 h; in the data active = GI50 below about 0.43 µM; inactive = the rest
# output must be one of active, inactive

Before answering, review these 4 worked examples.
[
  {
    "compound": "CN(C)c1ccc2c(c1)OC(N)=C(C#N)C2c1ccc2c(c1)CCO2 (stereo not given)",
    "group": "active"
  },
  {
    "compound": "O=[N+]([O-])c1cccc([As]=[As]c2cccc([N+](=O)[O-])c2)c1 (stereo not given)",
    "group": "active"
  },
  {
    "compound": "Cn1cc(C2=C(c3cccc(OCC(O)CO)c3)C(=O)NC2=O)c2ccccc21 (stereo not given)",
    "group": "inactive"
  },
  {
    "compound": "Cc1c2c(nn1C)CSCc1cc(n(C)n1)CSc1cc(c3ccccc3c1)OCCCc1c(C(=O)O)n(C)c3c-2c(Cl)ccc13",
    "group": "inactive"
  }
]

Kindly provide the recorded test outcome for the following compound: `COc1ccc(OC)c(-c2c(C#N)c(N)nc(N3CCOCC3)c2C#N)c1`
inactive

====

- System: KM12 colon
- assay_summary: NCI tumour cell line growth inhibition, 48 h; in the data active means GI50 below about 0.43 µM; inactive means the rest
Outcome (select one): True = active, False = inactive

[
  {
    "compound": "COc1ccc(/C=C2\\CCCC3=C2NC(N)=NC3c2ccc(OC)c(OC)c2)cc1OC (stereo not drawn)",
    "group": "False"
  }
]

Tell me the assay call for `CCN(CC)Cc1ccc(Nc2nccc(-c3cnn4ncccc34)n2)cc1` please.
True

Identify the outcome logged in this assay for the compound shown: `O=C(/C=C/c1ccc([N+](=O)[O-])cc1)c1ccc2c3c(cccc13)CC2`
False

====

Here, each record is paired with measured TGI data.
- System: HT29 colon
- assay_summary: NCI tumour cell line growth inhibition, 48 h

[
  {
    "molecule": "Nc1[nH]nc2nc(-c3cccs3)cc(C(F)(F)F)c12",
    "assayed_target": "HT29 colon",
    "TGI": "> 25 µM"
  }
]

Summary line: `CC(=O)c1c(C(F)(F)F)n([O-])c2cc(Cl)c(Cl)cc2[n+]1=O` , HT29 colon, reported TGI = 2.54 µM

With HT29 colon as the test system, `CC1(C)[C@H]2CC[C@]1(C)[C@H](OC(=O)NNC(=O)O[C@@H]1C[C@@H]3CC[C@@]1(C)C3(C)C)C2` showed TGI of 20.9 µM

Response field TGI (HT29 colon) for item Nc1ccccc1CC(O)C(=O)O (centres undefined) : > 100 µM

Entry `O=c1[nH]nc(-c2ccccc2)n1/N=C/c1cccnc1` , tested on HT29 colon, has a reported TGI of > 100 µM

The molecule `Clc1nc(Cl)c2ncn(C/C=C/COc3cccc(OC/C=C/Cn4cnc5c(Cl)nc(Cl)nc54)c3)c2n1` on HT29 colon: TGI was > 100 µM

Assay HT29 colon, sample `C=C(CO[Si](C)(C)C(C)(C)C)C(C)=O` , TGI read: 40.7 µM

Item CC1(O)CC(=O)c2c(cc3ccc(-c4c5c(c(O)c6c(O)cccc46)C(=O)CC(C)(O)C5)c(O)c3c2O)C1 (centres undefined) was tested on HT29 colon; the reported TGI is 3.96 µM

====

# maps each entry to its GI50
- Test system: NCI-H23 lung
- assay_summary: NCI tumour cell line growth inhibition, 48 h

Examples with answers:
[
  {
    "compound_structure_string": "COc1ccc(C(=O)/C=C/c2c(Cl)c3c(c(OC)c2Cl)OCC(=O)N3)cc1",
    "observed_result": "2230 nM"
  },
  {
    "compound_structure_string": "C1CN(SSN2CCOCC2)CCO1",
    "observed_result": "22500 nM"
  },
  {
    "compound_structure_string": "Cc1ccc(S(=O)(=O)Nc2cccc3[nH]c(C(F)(F)F)nc23)cc1",
    "observed_result": "1660 nM"
  }
]

Continue with the next molecule.
# GI50 (molecule: `Nc1[nH]nc2nc(-c3cccs3)cc(C(F)(F)F)c12` ) is > 25000 nM
